propertyName: Ki (nM)
Please respond with the number in nM and leave the unit unwritten.

Exercise: Fill: Ki (human M3-receptors (Homo sapiens, UniProt P20309)) for this compound C[N+]1(CC(=O)c2cccs2)CC[C@@H](N2CC(c3ccc(F)cc3)(c3ccc(F)cc3)NC2=O)C1 (some centres unmarked) [Compound 19bp]
Key: 1.96

Exercise: Fill: Ki (human M3-receptors (Homo sapiens, UniProt P20309)) for this compound C[N+]1(CC(=O)c2cccs2)CC[C@@H](N2CC(c3ccc(F)cc3)(c3ccc(F)cc3)NC2=O)C1 (some centres unmarked) [Compound 19bq]
Key: 1.62

----------
# targetDesc: human M2-receptors (Homo sapiens)
# Sequence (P08172 1-466): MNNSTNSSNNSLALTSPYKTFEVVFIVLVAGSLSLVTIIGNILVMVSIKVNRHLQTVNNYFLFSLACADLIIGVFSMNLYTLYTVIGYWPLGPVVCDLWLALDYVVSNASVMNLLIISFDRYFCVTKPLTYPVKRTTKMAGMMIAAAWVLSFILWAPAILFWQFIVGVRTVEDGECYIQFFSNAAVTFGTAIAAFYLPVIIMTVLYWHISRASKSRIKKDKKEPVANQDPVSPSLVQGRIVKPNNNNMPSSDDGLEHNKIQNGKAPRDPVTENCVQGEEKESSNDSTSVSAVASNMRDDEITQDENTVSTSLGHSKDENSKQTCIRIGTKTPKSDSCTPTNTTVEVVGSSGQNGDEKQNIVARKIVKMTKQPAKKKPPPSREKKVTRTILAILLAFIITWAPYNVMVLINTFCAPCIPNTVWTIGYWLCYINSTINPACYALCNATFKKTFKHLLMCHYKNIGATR
Param label: returns Satisfied when Ki < 100 nM, returns Not satisfied otherwise, including exact equality.

Exercise: Decide: Ki of O=C1NC(c2cccs2)(c2cccs2)CN1C1CCN(Cc2ccccc2)CC1 [Compound 27i] strictly below 100 nM?
Key: Satisfied

Exercise: Decide: Ki of C[N+]1(CC(=O)c2cccs2)CC[C@@H](N2CC(c3ccc(F)cc3)(c3ccc(F)cc3)NC2=O)C1 (stereo partly drawn) [Compound 19bq] strictly below 100 nM?
Key: Satisfied

Exercise: Decide: Ki of O=C1NC(c2ccccc2)(c2ccccc2)CN1C1CCN(Cc2ccccc2)CC1 [Compound 27a] strictly below 100 nM?
Key: Satisfied

Exercise: Decide: Ki of C[N+]1(CC(=O)c2cccs2)CC[C@@H](N2CC(c3ccc(F)cc3)(c3ccc(F)cc3)NC2=O)C1 (stereo partly drawn) [Compound 19bp] strictly below 100 nM?
Key: Satisfied

Exercise: Decide: Ki of O=C1NC(c2ccc(F)cc2)(c2ccc(F)cc2)CN1C1CCN(Cc2cccc(Cl)c2)CC1 [Compound 18ab] strictly below 100 nM?
Key: Not satisfied

Exercise: Decide: Ki of O=C1NC(c2ccccc2)(C2CCCCC2)CN1C1CCN(Cc2ccccc2)CC1 (stereo not drawn) [Compound 27c] strictly below 100 nM?
Key: Satisfied

Exercise: Decide: Ki of Cc1cccc(CN2CCC(N3CC(c4cccs4)(c4cccs4)NC3=O)CC2)c1 [Compound 18ag] strictly below 100 nM?
Key: Not satisfied

Exercise: Decide: Ki of Cc1cccc(CN2CCC(N3CC(c4ccccc4)(c4ccccc4)NC3=O)CC2)c1 [Compound 18i] strictly below 100 nM?
Key: Not satisfied

Exercise: Decide: Ki of O=C1NC(c2ccc(F)cc2)(c2ccc(F)cc2)CN1C1CCN(Cc2cccc(F)c2)CC1 [Compound 18an] strictly below 100 nM?
Key: Not satisfied

Exercise: Decide: Ki of O=C1NC(c2cccs2)(c2cccs2)CN1C1CCN(Cc2cccc(F)c2)CC1 [Compound 18ad] strictly below 100 nM?
Key: Not satisfied

Exercise: Decide: Ki of O=C1NC(c2ccccc2)(c2ccccc2)CN1C1CCN(Cc2cccc(Cl)c2)CC1 [Compound 18e] strictly below 100 nM?
Key: Not satisfied

Exercise: Decide: Ki of O=C1NC(c2ccc(F)cc2)(c2ccc(F)cc2)CN1C1CCN(Cc2ccccc2)CC1 [Compound 27h] strictly below 100 nM?
Key: Not satisfied

These entries and their values trace back to patent US20090005364A1.
